Tested on: Aorta
Test: Vasodilating activity in Sprague-Dawley rat aortic rings assessed as reduction in phenylephrine-induced contractions at 1:1 ratio of test compound to furoxan
Type: functional, tissue-based

compound: O=c1c2ccccc2nc2n1CCc1c-2[nH]c2ccccc12 [RUTAECARPINE]
target entity: Aorta
EC50 (nM): 29.7
